target: ATP-binding cassette sub-family C member 2 (Rattus norvegicus, UniProt Q63120); test: TP_TRANSPORTER: inhibition of E217betaG uptake (E217betaG: 0.055 uM) in membrane vesicles from Mrp2-expressing Sf9 cells; format: functional, cell membranes, Membrane vesicle
Sequence (Q63120 whole entry): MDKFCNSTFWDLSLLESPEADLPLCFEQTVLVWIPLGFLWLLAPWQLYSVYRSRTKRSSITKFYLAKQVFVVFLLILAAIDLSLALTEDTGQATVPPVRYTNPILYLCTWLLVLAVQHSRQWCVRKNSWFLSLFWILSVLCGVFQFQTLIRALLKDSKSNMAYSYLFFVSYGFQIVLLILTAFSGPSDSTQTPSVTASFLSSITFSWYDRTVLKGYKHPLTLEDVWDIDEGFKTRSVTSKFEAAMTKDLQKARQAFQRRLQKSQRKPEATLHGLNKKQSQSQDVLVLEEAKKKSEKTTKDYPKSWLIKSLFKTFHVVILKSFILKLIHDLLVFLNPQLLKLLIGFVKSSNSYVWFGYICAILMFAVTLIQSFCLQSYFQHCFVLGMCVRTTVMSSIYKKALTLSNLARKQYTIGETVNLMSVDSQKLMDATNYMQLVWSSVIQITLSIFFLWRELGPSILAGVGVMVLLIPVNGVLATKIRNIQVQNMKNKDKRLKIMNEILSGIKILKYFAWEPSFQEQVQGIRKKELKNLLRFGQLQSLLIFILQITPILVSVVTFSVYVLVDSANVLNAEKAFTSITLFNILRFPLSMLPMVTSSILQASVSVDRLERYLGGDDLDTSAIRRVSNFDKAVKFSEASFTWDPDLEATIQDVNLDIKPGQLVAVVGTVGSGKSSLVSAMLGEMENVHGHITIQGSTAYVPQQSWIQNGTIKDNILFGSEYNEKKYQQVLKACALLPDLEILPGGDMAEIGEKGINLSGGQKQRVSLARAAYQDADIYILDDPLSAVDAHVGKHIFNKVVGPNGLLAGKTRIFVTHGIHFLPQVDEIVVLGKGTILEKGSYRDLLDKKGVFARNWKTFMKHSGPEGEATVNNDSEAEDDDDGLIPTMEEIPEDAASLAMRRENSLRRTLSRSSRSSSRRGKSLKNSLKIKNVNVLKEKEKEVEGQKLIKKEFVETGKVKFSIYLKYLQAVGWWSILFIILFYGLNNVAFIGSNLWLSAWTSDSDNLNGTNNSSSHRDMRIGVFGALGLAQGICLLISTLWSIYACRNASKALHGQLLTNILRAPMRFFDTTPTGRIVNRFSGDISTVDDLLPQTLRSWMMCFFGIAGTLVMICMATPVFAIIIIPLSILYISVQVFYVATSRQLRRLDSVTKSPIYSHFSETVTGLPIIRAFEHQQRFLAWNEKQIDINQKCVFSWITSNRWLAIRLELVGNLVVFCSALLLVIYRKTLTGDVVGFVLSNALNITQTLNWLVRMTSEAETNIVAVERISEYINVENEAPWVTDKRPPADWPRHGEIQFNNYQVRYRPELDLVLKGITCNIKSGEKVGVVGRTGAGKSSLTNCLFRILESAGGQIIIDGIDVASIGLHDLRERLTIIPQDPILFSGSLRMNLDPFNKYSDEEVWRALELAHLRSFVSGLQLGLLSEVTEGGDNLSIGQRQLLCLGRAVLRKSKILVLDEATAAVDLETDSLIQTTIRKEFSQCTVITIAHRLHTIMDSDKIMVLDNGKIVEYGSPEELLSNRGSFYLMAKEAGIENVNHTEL
ASSAY_ENDPOINT: IC50 (µM)
Return type: number; implicit unit µM.

Below are worked cases with known answers.
| COMPOUND | ENDPOINT_RESULT |
| --- | --- |
| CCCCC/C=C\C\C=C/C=C/C=C/[C@@H](SC[C@@H](NC(=O)CC[C@H](N)C(=O)O)C(=O)NCC(=O)O)[C@@H](O)CCCC(=O)O | 0.65 |
| CCCCC/C=C\C\C=C/C=C/C=C/[C@@H](SC[C@H](N)C(=O)O)[C@@H](O)CCCC(=O)O | 9.83 |
| CCCCC/C=C\C\C=C/C=C/C=C/[C@@H](SC[C@H](N)C(=O)NCC(=O)O)[C@@H](O)CCCC(=O)O | 5.48 |
| N[C@@H](CCC(=O)N[C@H](CSc1ccc([N+](=O)[O-])cc1[N+](=O)[O-])C(=O)NCC(=O)O)C(=O)O | 19.3 |
| CCCCC/C=C\C\C=C/C=C/C=C/[C@@H](SC[C@H](NC(=O)CC[C@@H](N)C(=O)O)C(=O)O)[C@@H](O)CCCC(=O)O | 10 |

[in] API: value(readout= IC50, system= ATP-binding cassette sub-family C member 2 (Rattus norvegicus, UniProt Q63120), query= CN(C)C(=O)CCSC(SCCC(=O)O)c1cccc(/C=C/c2ccc3ccc(Cl)cc3n2)c1 (stereo unspecified) )
[out] 2.62

FYI, the data here is from ChEMBL document CHEMBL2073895.
